# Activity listing for each entry below
- Measurement Target: Gox0313 (Gluconobacter oxydans)
- Sequence (Q5FU50 1-343): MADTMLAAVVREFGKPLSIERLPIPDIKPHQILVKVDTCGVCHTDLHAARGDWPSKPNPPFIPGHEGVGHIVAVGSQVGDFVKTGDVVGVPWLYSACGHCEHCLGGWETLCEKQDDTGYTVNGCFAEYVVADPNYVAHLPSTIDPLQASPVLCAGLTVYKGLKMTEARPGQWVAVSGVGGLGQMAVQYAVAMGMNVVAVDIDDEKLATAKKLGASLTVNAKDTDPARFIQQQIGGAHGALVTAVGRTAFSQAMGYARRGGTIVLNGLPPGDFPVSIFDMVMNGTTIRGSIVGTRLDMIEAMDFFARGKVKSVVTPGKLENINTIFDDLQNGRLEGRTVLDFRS
- Test Summary: Enzyme activity assay (rate of NAD(P)H decrease at 340 nm), Gox0313
- Assay type: biochemical
- Experimental Context: Table 3, Gox0313; 10 mM substrate, K-phosphate buffer pH 7.0, 0.05 mM NAD(P)H, 30 °C
- Procedure: Measurment of enzyme activity: NADPH-dependent alpha-ketocarbonyl reductases were assayed by a routine method used for NAD(P)-linked enzymes by recording the rate of decrease of NADPH at 340 nm (ε = 6.22 mM^-1 x cm^-1)) with substrates at 30 °C. The reaction mixture (1 ml) for reduction of alpha-ketocarbonyl substrates contained 10 mM substrate, 40 mM potassium phosphate buffer pH 7.0, 0.025 mM NAD(P)H , and the enzyme. Reactions were induced by addition of enzyme or substrate. […]

[
  {
    "Molecular String": "CC(=O)C(=O)c1ccccc1",
    "Measurement Target": "Gox0313 (Gluconobacter oxydans)",
    "Activity / U/mg": 0.2
  },
  {
    "Molecular String": "CCCC(=O)C(C)=O",
    "Measurement Target": "Gox0313 (Gluconobacter oxydans)",
    "Activity / U/mg": 19.6
  },
  {
    "Molecular String": "CC(=O)C=O",
    "Measurement Target": "Gox0313 (Gluconobacter oxydans)",
    "Activity / U/mg": 10.6
  },
  {
    "Molecular String": "O=CC(=O)c1ccccc1",
    "Measurement Target": "Gox0313 (Gluconobacter oxydans)",
    "Activity / U/mg": 0.5
  },
  {
    "Molecular String": "CCC(=O)C(C)=O",
    "Measurement Target": "Gox0313 (Gluconobacter oxydans)",
    "Activity / U/mg": 35.9
  },
  {
    "Molecular String": "CCC(=O)C(=O)CC",
    "Measurement Target": "Gox0313 (Gluconobacter oxydans)",
    "Activity / U/mg": 19.5
  }
]

These measurements were taken from patent EP2119770B1.
